Below is a list of entries, each paired with its recorded pIC50 value.
Target: Amine oxidase [flavin-containing] A (Rattus norvegicus, UniProt P21396)
Sequence (P21396 whole entry): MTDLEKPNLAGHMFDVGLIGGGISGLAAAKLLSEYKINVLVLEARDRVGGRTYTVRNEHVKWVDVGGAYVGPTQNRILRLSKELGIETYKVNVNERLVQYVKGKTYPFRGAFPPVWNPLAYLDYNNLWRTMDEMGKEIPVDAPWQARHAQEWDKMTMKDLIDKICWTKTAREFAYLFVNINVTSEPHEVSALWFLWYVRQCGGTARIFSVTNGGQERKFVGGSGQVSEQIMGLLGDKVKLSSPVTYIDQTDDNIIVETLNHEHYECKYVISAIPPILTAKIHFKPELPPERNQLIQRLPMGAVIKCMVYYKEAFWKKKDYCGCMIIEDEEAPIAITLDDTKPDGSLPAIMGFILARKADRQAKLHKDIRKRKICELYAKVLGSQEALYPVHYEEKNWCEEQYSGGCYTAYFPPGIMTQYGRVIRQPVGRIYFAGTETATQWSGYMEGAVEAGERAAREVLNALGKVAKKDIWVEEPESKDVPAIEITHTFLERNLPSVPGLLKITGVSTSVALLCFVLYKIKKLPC
The quantity pIC50 is defined as the negative base-10 logarithm of the molar concentration.

// worked examples, pIC50 included
| molecule | targetDesc | pIC50 |
| --- | --- | --- |
| COc1cc(OC)c(CC(C)N)c(OC)c1 (stereo not drawn) | Amine oxidase [flavin-containing] A (Rattus norvegicus, UniProt P21396) | 6.40 |
| CCCSc1cc(OC)c(CC(C)N)cc1OC (stereo not drawn) | Amine oxidase [flavin-containing] A (Rattus norvegicus, UniProt P21396) | 5.62 |
| COc1ccc(CC(C)N)cc1OC (stereo not drawn) | Amine oxidase [flavin-containing] A (Rattus norvegicus, UniProt P21396) | 4.70 |
| CCC(Cc1cc(OC)c(SC)cc1OC)NC (stereo not drawn) | Amine oxidase [flavin-containing] A (Rattus norvegicus, UniProt P21396) | 4.81 |
| CCCSc1cc(OC)c(CC(CC)NC)cc1OC (stereo not drawn) | Amine oxidase [flavin-containing] A (Rattus norvegicus, UniProt P21396) | 5.85 |

Query: What does the record list as pIC50 for CCC(N)Cc1cc(OC)c(SC)cc1OC (stereo not drawn) ?
Response: 4.51

Query: What does the record list as pIC50 for CCCCSc1cc(OC)c(CC(C)N)cc1OC (stereo not drawn) ?
Response: 5.54

====

target: UniProtKB P21396
observedProperty: IC50 (µM)
Expressed in µM, but write only the number.

| compound | observedProperty | reportedValue |
| --- | --- | --- |
| CCCSc1cc(OC)c(CC(C)NC)cc1OC (centres undefined) | IC50 | 0.3 |
| COc1cc(SC)cc(OC)c1CC(C)N (centres undefined) | IC50 | 0.3 |
| CCSc1cc(OC)c(CC(CC)NC)cc1OC (centres undefined) | IC50 | 4.5 |
| COc1ccc(CC(C)N)c(OC)c1 (centres undefined) | IC50 | 0.6 |
| COc1cc(Br)c(CC(C)N)cc1OC (centres undefined) | IC50 | 9.3 |
| COc1cc(SC)c(OC)cc1CC(C)N (centres undefined) | IC50 | 5.2 |
| CC(C)CSc1ccc(CC(C)N)cc1 (centres undefined) | IC50 | 0.4 |
| COc1cc(Cl)c(CC(C)N)c(OC)c1 (centres undefined) | IC50 | 0.07 |

Query: Hello, I am looking for reported IC50 with UniProtKB P21396 for CC(N)Cc1ccc(Cl)cc1 (centres undefined) . Could you help?
Response: 4

Query: Hello, I am looking for reported IC50 with UniProtKB P21396 for COc1cc(SC(C)C)c(OC)cc1CC(C)N (centres undefined) . Could you help?
Response: 27.3

Query: Hello, I am looking for reported IC50 with UniProtKB P21396 for CCOc1ccc(CC(C)N)cc1 (centres undefined) . Could you help?
Response: 0.2

Query: Hello, I am looking for reported IC50 with UniProtKB P21396 for CCSc1cc(OC)c(CC(C)N)c(OC)c1 (centres undefined) . Could you help?
Response: 0.08

Query: Hello, I am looking for reported IC50 with UniProtKB P21396 for CCSc1cc(OC)c(CC(C)NC)cc1OC (centres undefined) . Could you help?
Response: 1.4
